System: NCI-H460 (lung carcinoma)
Assay overview: Antitumoral assay (MTS, 72 h), NCI-H460
Run parameters: Homo sapiens, NCI-H460, 72 h, read-out: Cytotoxicity IC50, NCl-H460
Reported property: pIC50
On this scale, pIC50 is minus log10 of a concentration expressed in M (mol/L).

(Q) For the compound shown here, COc1cc([C@@H]2c3cc4c(cc3[C@@H](O[C@@H]3O[C@@H]5CO[C@@H](C)O[C@H]5[C@H](O)[C@H]3O)[C@H]3COC(=O)[C@H]23)OCO4)cc(OC)c1O [Etoposide, reference compound] , give the reported pIC50.
(A) 5.63

(Q) Look up pIC50: C/C(=C/CC[C@H](C)[C@@H]1CC[C@]2(C)C3=C(CC[C@@]12C)[C@@]1(C)CC(SC#N)C(=O)C(C)(C)C1CC3)C(=O)O (mixture of isomers) [Compound 6]
(A) 4.67
